- Tested on: AII receptor
- Assay summary: Angiotensin II receptor binding (displacement of 3H-AII)
- Experimental parameters: read-out: Angiotensin II Receptor Binding IC50; Table 25; rat adrenal cortical microsomes, 2 nM 3H-AII, 1 hour, room temperature
Reported endpoint: IC50
Please answer using the number first and the unit second.

Compound	IC50
CCCCc1nc(Cl)c(CC(C)C(=O)OC(C)C)n1Cc1ccc(NC(=O)c2ccccc2C(=O)O)cc1 (stereo not drawn) [Example 246]	0.12 µM
CCCCc1nc(Cl)c(C=CCO)n1Cc1ccc(-c2ccccc2C(=O)O)cc1 [Example 314]	0.63 µM
CCCCc1nc(Cl)c(CO)n1Cc1ccc(N2C(=O)c3ccccc3C2=O)cc1 [Example 28]	8 µM
CCCCCCCc1nc(Cl)c(CO)n1Cc1ccc(NC(=O)c2ccccc2NS(=O)(=O)C(F)(F)F)cc1 [Example 54]	7.2 µM
CCCCc1nc(Cl)c(/C=C/c2ccccc2)n1Cc1ccc(NC(=O)c2ccccc2C(=O)O)cc1 [Example 230]	1.6 µM

Can you share its IC50? I mean this compound: CCCCc1nc(Cl)c(CCC(=O)N2CCOCC2)n1Cc1ccc(NC(=O)c2ccccc2NS(=O)(=O)C(F)(F)F)cc1 [Example 250]
0.12 µM

How about this compound: CCCCc1nccn1Cc1ccc(NC(=O)c2ccccc2NS(=O)(=O)C(F)(F)F)cc1 [Example 59]
3 µM

Now the compound CCCCc1nc(Cl)c(CC(=O)OC)n1Cc1ccc(NC(=O)[C@@H]2CCCC[C@@H]2NS(=O)(=O)C(F)(F)F)cc1 (relative stereo) [Example 74 (cis compound)]
4.5 µM

Same thing, different compound: CCCCc1nc(Cl)c(CC(=O)OC)n1Cc1ccc(NC(=O)[C@@H]2CCCC[C@H]2NS(=O)(=O)C(F)(F)F)cc1 (relative stereo) [Example 74 (trans compound)]
3.9 µM

Follow-up entry: COCCc1nc(Cl)c(CO)n1Cc1ccc(NC(=O)c2ccccc2C(=O)O)cc1 [Example 55]
0.93 µM

----------
- Tested on: Renal Hypertensive Rats
- Assay summary: Antihypertensive effects in renal hypertensive rats
- Assay type: in vivo
- Experimental parameters: Rattus norvegicus; Table 26; intravenous, 3 mg/kg
Form field: minimal effective dose at 3 mg/kg (one value per entry).

Please state recorded minimal effective dose at 3 mg/kg (tested on Renal Hypertensive Rats) of CCC=Cc1nc(C(F)(F)F)c(C=O)n1Cc1ccc(-c2ccccc2C(=O)O)cc1 [Example 140F]
< 3 mg/kg

// next record CCCc1nc(C(F)(F)C(F)(F)F)c(CO)n1Cc1ccc(-c2ccccc2C(=O)O)cc1 [Example 124B]
< 3 mg/kg

Next compound up: CCCCc1nc(Cl)c(-c2[nH]nnc2C(=O)O)n1Cc1ccc(-c2ccccc2-c2nnn[nH]2)cc1
< 3 mg/kg

Entry CCCc1nc(C(F)(F)C(F)(F)C(F)(F)F)c(CO)n1Cc1ccc(-c2ccccc2C(=O)O)cc1 [Example 124G] please
< 3 mg/kg

Next up: CCCCc1nc(Cl)c(C=NNS(=O)(=O)c2ccccc2)n1Cc1ccc(-c2ccccc2-c2nnn[nH]2)cc1
> 3 mg/kg

And the next one, CCCCc1nc(Br)c(C=O)n1Cc1ccc(-c2ccccc2-c2nnn[nH]2)cc1 [Example 140E] ?
< 3 mg/kg

----------
pIC50 values by entry
- Tested on: AII receptor
- Assay summary: Angiotensin II receptor binding (displacement of 3H-AII)
- Experimental parameters: read-out: Angiotensin II Receptor Binding IC50; Table 25; rat adrenal cortical microsomes, 2 nM 3H-AII, 1 hour, room temperature
Schema: pIC50 number; meaning minus log10 of the concentration expressed in molar units.

> print(dat)
                                   compound     tested.on  endpoint.value
1  CCCCCCc1nccn1Cc1ccc(NC(=O)c2ccccc2C(=O)O)cc1  AII receptor            6.46

# input compound: CCCCc1nc(Cl)c(CN2CCN(c3ccccc3OC)CC2)n1Cc1ccc(-c2ccccc2C(=O)O)cc1 ; wanted: its pIC50
6.13
